Here the recorded IC50 is given for each entry.
STUDY_TARGET: human PR ligand-binding domain tagged with GST [PR-LBD (GST)] (Homo sapiens)
Construct: purchased Life Technologies (Carlsbad, Calif.)
Sequence (P06401 679-913 limits assumed): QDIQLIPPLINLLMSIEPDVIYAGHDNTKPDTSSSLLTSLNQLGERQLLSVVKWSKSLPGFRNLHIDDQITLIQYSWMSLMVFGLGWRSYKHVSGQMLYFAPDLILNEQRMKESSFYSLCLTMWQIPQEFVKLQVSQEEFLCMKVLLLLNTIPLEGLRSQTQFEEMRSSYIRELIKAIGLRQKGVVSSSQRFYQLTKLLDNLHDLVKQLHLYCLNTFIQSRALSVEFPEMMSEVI
PROTOCOL: PR fluorescence polarization (FP) binding assay
SETUP_CONDITIONS: IC50 (nM) PR binding, Fluormone PL Green
MEASURED_PROPERTY: IC50 (nM)

INSERT INTO results (compound, measured_property, unit, val) VALUES
  ('C[C@@H]1CC2=CC(=O)CC[C@]2(C)C2CC[C@@]3(C)C(CC[C@@H]3O)C21 (stereo partly shown)', 'IC50', 'nM', 395),
  ('CC12CCC(=O)C=C1CC(c1ccccc1)C1C2CCC2(C)C(O)CCC12 (stereo not shown)', 'IC50', 'nM', 463),
  ('C[C@@H]1CC2CC(=O)CC[C@]2(C)C2CC[C@@]3(C)C(CC[C@@H]3O)C21 (stereo partly drawn) [CDB-4922, 7α-methyldihydro testosterone]', 'IC50', 'nM', 1890),
  ('CC[C@@H]1CC2=CC(=O)CC[C@]2(C)C2CC[C@@]3(C)C(CC[C@@H]3O)C21 (stereo partly shown)', 'IC50', 'nM', 672);
